tested on: Mammalian orthoreovirus 1; test: Antiviral activity against Reovirus 1 3651 ATCC VR-214 infected in golden hamster BHK21 cells assessed as protection against virus-induced cytopathic effect after 3 to 4 days by MTT assay; format: functional, organism-based; conditions: Mammalian orthoreovirus 1, 3651 ATCC VR-214, BHK-21

{"SMILES REPR": "CCOC(=O)c1ccc(SCc2ccc3nc(OC)c(OC)nc3c2)nc1", "ASSAYED SYSTEM": "Mammalian orthoreovirus 1", "EC50": "> 100 µM"}
{"SMILES REPR": "CCOC(=O)c1ccc(SCc2ccc3nc(OC)c(OC)nc3c2)cc1", "ASSAYED SYSTEM": "Mammalian orthoreovirus 1", "EC50": "> 100 µM"}
{"SMILES REPR": "COc1nc2ccc(CSc3ccc4ccccc4c3)cc2nc1OC", "ASSAYED SYSTEM": "Mammalian orthoreovirus 1", "EC50": "> 100 µM"}
{"SMILES REPR": "COc1nc2ccc(CSc3ccccn3)cc2nc1OC", "ASSAYED SYSTEM": "Mammalian orthoreovirus 1", "EC50": "> 100 µM"}
{"SMILES REPR": "CCOC(=O)CC[C@H](NC(=O)c1ccc(SCc2ccc3nc(OC)c(OC)nc3c2)nc1)C(=O)OCC", "ASSAYED SYSTEM": "Mammalian orthoreovirus 1", "EC50": "> 85 µM"}
{"SMILES REPR": "CCOC(=O)CC[C@H](NC(=O)c1ccccc1SCc1ccc2nc(OC)c(OC)nc2c1)C(=O)OCC", "ASSAYED SYSTEM": "Mammalian orthoreovirus 1", "EC50": "> 100 µM"}
{"SMILES REPR": "COc1nc2ccc(CSc3ccc(Cl)c(Cl)c3)cc2nc1OC", "ASSAYED SYSTEM": "Mammalian orthoreovirus 1", "EC50": "> 80 µM"}
{"SMILES REPR": "COc1nc2ccc(CSc3ccc(C(=O)O)cn3)cc2nc1OC", "ASSAYED SYSTEM": "Mammalian orthoreovirus 1", "EC50": "> 100 µM"}
{"SMILES REPR": "COc1nc2ccc(CSc3ccc(C(=O)O)cc3)cc2nc1OC", "ASSAYED SYSTEM": "Mammalian orthoreovirus 1", "EC50": "> 65 µM"}
{"SMILES REPR": "C[C@@]1(O)[C@H](O)[C@@H](CO)O[C@H]1n1cnc2c(=O)[nH]c(N)nc21", "ASSAYED SYSTEM": "Mammalian orthoreovirus 1", "EC50": "1.9 µM"}

Source listed as ChEMBL document CHEMBL4145483.
